Test: JC-1 mitochondrial signal, unstimulated myeloma cells – cell-based, JC-1 fluorescence, RPMI8226, 24 h, 100 nL compound, profiling panel (AID 1169); further: test concentration not given here
Settings: JC-1 mitochondrial potential fluorescence, higher = more signal
Would you mind labelling by z-score? At or over -0.06 is Condition met, under is Condition not met.

Some solved cases for reference:
[[record]]
compound = "C=CCN1Cc2ccccc2[C@H]2OC(c3ccc(OCCCO)cc3)=N[C@@]2(CCS(=O)(=O)c2ccccc2)C1=O"
group = "Condition not met"

[[record]]
compound = "CC(C)C(=C=CC[C@H](O)c1ccccc1OCCO)C[C@H](O)COCc1ccccc1"
group = "Condition not met"

[[record]]
compound = "C=C(C)[C@@H]1CC=C(C(O)C2C=CC3C(=O)N(C)C(=O)C3N2Nc2ccc([N+](=O)[O-])cc2[N+](=O)[O-])CC1 (some centres not stated)"
group = "Condition met"

[[record]]
compound = "CC1CC/C=C\\[C@H]2OC34C=CCN(C(C)(C)C)C(=O)[C@H]3N(CCCO)C(=O)[C@@H]4C2C(=O)O1 (some centres not stated)"
group = "Condition not met"

[[record]]
compound = "CCCCC(=C=CC[C@H](O)c1ccc(CO)o1)CCO"
group = "Condition met"

[[record]]
compound = "COc1ccc(NN2C(C(O)c3ccc(I)cc3)C=CC3C(=O)N(C4CCCCC4)C(=O)C32)cc1 (configuration not stated)"
group = "Condition met"

[[record]]
compound = "O=C(NCc1ccccc1)[C@@H]1c2ccccc2C(=O)N(Cc2cc(C(F)(F)F)cc(C(F)(F)F)c2)[C@H]1c1ccc(CO)cc1"
group = "Condition not met"

[[record]]
compound = "CCCC[C@H]1OB(O)C[C@H]2C1=C(COc1ccccc1)C[C@H]1C(=O)C=CC(=O)[C@H]12"
group = "Condition not met"

[[record]]
compound = "COc1ccc(C(O)C2C=CC3C(=O)N(c4ccccc4)C(=O)C3N2Nc2ccc(C#N)cc2)cc1OCc1ccccc1 (configuration not stated)"
group = "Condition not met"

[[record]]
compound = "CC(C)C(O)C1C=CC2C(=O)NC(=O)C2N1Nc1ccccn1 (configuration not stated)"
group = "Condition met"


Now consider the entry below.
Please indicate if the recorded z-score for `O=C1C=C(c2ccccc2)C(=O)C2=C1CC([C@H]1Oc3ccccc3S(=O)(=O)N3CCC[C@@H]13)=CC2` meets or exceeds -0.06.
Condition not met

* * *

Target: Torsin-1A (Homo sapiens) (UniProt O14656)
Sequence (O14656 whole entry, looked up): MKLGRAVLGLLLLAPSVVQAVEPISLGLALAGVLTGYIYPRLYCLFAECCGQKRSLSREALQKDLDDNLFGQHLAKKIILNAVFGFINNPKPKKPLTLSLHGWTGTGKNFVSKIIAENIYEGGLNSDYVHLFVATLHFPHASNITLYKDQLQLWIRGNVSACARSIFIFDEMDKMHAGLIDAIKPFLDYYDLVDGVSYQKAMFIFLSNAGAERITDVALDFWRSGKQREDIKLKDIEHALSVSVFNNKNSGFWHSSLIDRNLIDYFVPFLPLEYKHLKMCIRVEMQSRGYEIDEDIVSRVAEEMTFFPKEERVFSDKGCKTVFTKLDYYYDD
Test: TOR1A wild-type binding on microarray – cell lysate, small-molecule microarray, lysate, 635/667 nm, primary screen (AID 1149)
Details: COS7 hTOR1A-WT lysate, 635 nm fluorescence, higher = more signal
1 means recorded composite z-score is -0.07 or above; 0 means it is below -0.07.

Worked cases, answers included:
[[record]]
compound = "O=C(NCc1ccccc1)[C@@H]1c2ccccc2C(=O)N(Cc2cc(C(F)(F)F)cc(C(F)(F)F)c2)[C@H]1c1ccc(CO)cc1"
group = 0

[[record]]
compound = "COCCCN1C(=O)[C@@]2(c3ccc([N+](=O)[O-])cc3)CC(=O)N(CC34CC5CC(CC(C5)C3)C4)[C@@H]2c2ccc(CO)cc21"
group = 0

[[record]]
compound = "O=C1C2C=CC(C(O)C3CCCCC3)N(n3cnnc3)C2C(=O)N1Cc1ccccc1 (centres undefined)"
group = 1

[[record]]
compound = "CC(C)N1C(=O)c2ccccc2[C@](C)(C(=O)NCC(F)(F)F)[C@@H]1c1ccc(CO)cc1"
group = 0

[[record]]
compound = "CN(C)C(=O)[C@@]1(Cc2ccccc2CN=[N+]=[N-])COC(c2ccc(OCCCO)cc2)=N1"
group = 0

[[record]]
compound = "O=C1C2C=CC(C(O)c3c(F)cccc3Cl)N(Nc3ccc([N+](=O)[O-])cc3)C2C(=O)N1c1ccccc1 (centres undefined)"
group = 1

[[record]]
compound = "CO[C@H]1O[C@H](CO)[C@@H](OC(=O)Nc2ccccc2-c2ccccc2)[C@H](OC(=O)Nc2ccccc2)[C@H]1OC(=O)Nc1ccccc1"
group = 1

[[record]]
compound = "CN1C(=O)C2C(C3CC3)C=C3CN(Cc4cccc(Cl)c4)[C@@H]([C@@H](O)Cc4ccccc4)C3C2C1=O (some centres undefined)"
group = 1

[[record]]
compound = "CC(C)=C1C(=O)C(c2ccccc2)=C2CN3C(=O)N(CCc4ccccc4)C(=O)[C@]3(C)[C@H]21"
group = 0

[[record]]
compound = "CCC(CC)C(O)C1C=CC2C(=O)N(c3ccccc3)C(=O)C2N1Nc1ccccc1F (centres undefined)"
group = 1


Can `O=C1C[C@@](C(=O)NCc2ccccc2)(c2ccc([N+](=O)[O-])cc2)[C@@H](c2ccc(CO)cc2)N1C1CCCCC1` be said to have composite z-score at or above -0.07?
1

Determine whether this compound has composite z-score no lower than -0.07: `COC(=O)[C@@]1(Cc2ccccc2)[C@H]2c3cc(C(=O)N(C)C)n(CCO)c3C[C@H]2CN1C(=O)c1ccccc1`
0

* * *

Experiment: S6 kinase pathway phospho-S6 level changes – cell-based, A549, cytoblot, luminescence, serum-stimulated, primary screen (AID 1158);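 further: serum-stimulated A549 lung adenocarcinoma cells; signal is phosphorylated S6 detected by cytoblot immunostaining with HRP secondary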
Conditions: 5 h, higher = more signal
z-score listing for selected molecules.
Reply: number alone, nothing else.

Here is how some molecules turned out for z-score.
[[record]]
molecule = "CN1C(=O)C2C(C1=O)C1C=C(CCCO)C2C(C2CC2)N1Cc1cccc(OC(F)(F)F)c1 (stereo not drawn)"
parameter = "z-score"
reported_value = -0.546

[[record]]
molecule = "CN1C(=O)C2C(C3CC3)C=C3CN(Cc4cccc(Cl)c4)[C@@H]([C@@H](O)Cc4ccccc4)C3C2C1=O (stereo partly drawn)"
parameter = "z-score"
reported_value = 0.775

[[record]]
molecule = "CCOC(=O)C1=CC[C@@H](c2ccccc2)N(S(=O)(=O)c2ccc(C)cc2)[C@H]1c1ccccc1I"
parameter = "z-score"
reported_value = -0.94

[[record]]
molecule = "COc1cc(C(O)C2C=CC3C(=O)N(c4ccccc4)C(=O)C3N2Nc2ccccc2F)cc(OC)c1OC (stereo not drawn)"
parameter = "z-score"
reported_value = -1.01

[[record]]
molecule = "CCCC=C(CCC)[C@@H](NC(=O)c1ccc(C(F)(F)F)cc1)c1ccc(C(F)(F)F)cc1"
parameter = "z-score"
reported_value = -0.523


Note down z-score recorded for `C=C1C(=O)C=C2CN(C(=O)c3ccccc3)[C@@](Cc3ccc(OC)cc3)(C(=O)OC)[C@@H]12`
-0.0615

Please give the documented z-score of `CN1C(=O)[C@@H]2[C@@H](CC(COc3ccccc3)=C3[C@@H](CCc4ccccc4)OB(O)C[C@@H]32)C1=O`
-0.202

Indicate its recorded z-score; the molecule in question is `CC(C)C(=C=CC[C@H](O)c1ccccc1OCCO)C[C@H](O)COCc1ccccc1`
-0.181

* * *

# composite z-score listing for each entry below
Target: Follistatin-related protein 3 (Homo sapiens) (UniProt O95633)
Sequence (O95633 whole entry, looked up): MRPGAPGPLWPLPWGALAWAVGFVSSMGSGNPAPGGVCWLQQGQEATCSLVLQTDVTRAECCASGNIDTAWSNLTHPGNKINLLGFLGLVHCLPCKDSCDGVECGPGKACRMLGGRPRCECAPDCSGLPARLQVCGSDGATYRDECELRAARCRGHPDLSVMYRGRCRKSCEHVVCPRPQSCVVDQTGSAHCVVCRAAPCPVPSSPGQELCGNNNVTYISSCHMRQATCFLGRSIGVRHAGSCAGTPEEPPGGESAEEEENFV
Assay: compounds binding follistatin-related protein 3 – biochemical, small-molecule microarray, 635 nm fluorescence, primary screen (AID 1105);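 further: score merges emission near 667 nm and signal to noise per printed spot across three slides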
Details: FSTL3 binding, higher = more signal
Keep the answer to the number alone.

Consider the following illustrative entries.
[[record]]
compound = "CC=CC(O)C1C=CC2C(=O)NC(=O)C2N1Nc1ccc(Cl)cc1Cl (centres undefined)"
tgt = "Follistatin-related protein 3 (Homo sapiens) (UniProt O95633)"
parameter = "composite z-score"
reported_value = 0.46

[[record]]
compound = "O=C1C=C(c2ccccc2)C(=O)C2=C1CC([C@H]1Oc3ccccc3S(=O)(=O)N3CCC[C@@H]13)=CC2"
tgt = "Follistatin-related protein 3 (Homo sapiens) (UniProt O95633)"
parameter = "composite z-score"
reported_value = -0.365

[[record]]
compound = "CO[C@H]1O[C@H](CO)[C@@H](OC(=O)Nc2ccccc2)[C@H](OC(=O)Nc2ccccc2)[C@H]1OC(=O)Nc1ccccc1"
tgt = "Follistatin-related protein 3 (Homo sapiens) (UniProt O95633)"
parameter = "composite z-score"
reported_value = 0.41


Read the next record carefully.
Return the recorded composite z-score value; entry: CC1CC/C=C\[C@H]2OC34C=CCN(c5ccc6ccccc6c5)C(=O)[C@H]3N(C(C)CO)C(=O)[C@@H]4C2C(=O)O1 (some centres undefined)
-1.04

* * *

Form field: composite z-score (one value per entry).
Molecular target: Alpha-bungarotoxin (Bungarus multicinctus) (UniProt P60615)
Sequence (P60615 whole entry, looked up): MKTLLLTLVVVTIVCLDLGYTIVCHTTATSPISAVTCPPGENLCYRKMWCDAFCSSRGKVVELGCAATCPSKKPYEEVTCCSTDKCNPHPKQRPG
Assay: compounds binding labelled alpha-BTX control protein – biochemical, small-molecule microarray, Alexa647 label, 635/667 nm fluorescence, artefact control for SMM control protein annotation, profiling panel (AID 1117)
Conditions: alpha-BTX-A647 binding fluorescence, higher = more signal
Reply: number alone, nothing else.

[[record]]
compound = "COC(=O)[C@@]1(Cc2ccc(F)cc2)[C@H]2c3cc(C(=O)N4CCCC4)n(CCc4ccccn4)c3C[C@H]2CN1C(=O)c1ccccc1"
tgt = "Alpha-bungarotoxin (Bungarus multicinctus) (UniProt P60615)"
parameter = "composite z-score"
reported_value = 0.0045

[[record]]
compound = "COc1ccc([Si](C)(C)[C@H]2[C@H](CC(=O)N3Cc4ccccc4C[C@H]3CO)O[C@@]3(C(=O)N(c4ccccc4)c4ccccc43)[C@@H]2C)cc1"
tgt = "Alpha-bungarotoxin (Bungarus multicinctus) (UniProt P60615)"
parameter = "composite z-score"
reported_value = 1.69

[[record]]
compound = "C=CC[C@]1(C(=O)NCC(O)CO)COC(c2ccc(OCCCO)cc2)=N1 (some centres undefined)"
tgt = "Alpha-bungarotoxin (Bungarus multicinctus) (UniProt P60615)"
parameter = "composite z-score"
reported_value = -1.21


Now look at this entry.
// fetch composite z-score for `C=CCNC(=O)[C@@H]1[C@H]2C(=O)O[C@H](c3ccccc3)[C@H](c3ccccc3)N2[C@H](c2ccc(OCCO)cc2)[C@@]12C(=O)Nc1ccc(C#CC3(O)CCCCCC3)cc12` ; system: Alpha-bungarotoxin (Bungarus multicinctus) (UniProt P60615)
1.35
